tested on: Sprague-Dawley rats; test: Pharmacological effect and adverse reactions under the equivalent dose (2ED50), Group D compounds; format: in vivo; conditions: equivalent dose (2 × ED50), number of rats of n = 8
quantity name: Adverse reaction: Four limbs rigidity
No unit in the answer, only the number.

In plain terms, COC(OC)(OC)C(=O)c1cnnn1[C@H](C)c1ccccc1 has a documented Adverse reaction: Four limbs rigidity of 0

Consider CCOC(OCC)C(=O)c1cncn1[C@H](C)c1ccccc1 . Its measured Adverse reaction: Four limbs rigidity is 1

Recorded result, C#CCOCC(OC)(OC)C(=O)c1cncn1[C@H](C)c1ccccc1 , Adverse reaction: Four limbs rigidity: 1

Lookup result for CCOC(OC)(OC)C(=O)c1cncn1[C@H](C)c1ccccc1 ; measured Adverse reaction: Four limbs rigidity: 0

The compound identified as COC(OC)(OC)C(=O)c1c(F)ncn1[C@H](C)c1ccccc1 registered its Adverse reaction: Four limbs rigidity at 0

Adverse reaction: Four limbs rigidity in this record for COC(OC)C(=O)c1cc(F)nn1[C@H](C)c1ccccc1 : 1

So, CCOC(=O)c1cncn1C(C)c1ccccc1 (centres unmarked) [Etomidate, reference compound] ? Its Adverse reaction: Four limbs rigidity was 2

Record CCOC(OCC)C(=O)c1c(F)ncn1[C@H](C)c1ccccc1 . Reported Adverse reaction: Four limbs rigidity: 0

Note to self: Adverse reaction: Four limbs rigidity recorded for CCOC(OC)(OCC)C(=O)c1cncn1[C@H](C)c1ccccc1 was 0

Entry C[C@H](c1ccccc1)n1cncc1C(=O)C(=O)OCC(C)(C)C , Adverse reaction: Four limbs rigidity reported as 0

Adverse reaction: Four limbs rigidity for COC(=O)C(=O)c1cncn1[C@H](C)c1ccccc1 is 4

Input COC(OC)(OC)C(=O)c1c(F)cnn1[C@H](C)c1ccccc1 . Output Adverse reaction: Four limbs rigidity: 3

GET /value?item= COC(OC)C(=O)c1cncn1[C@H](C)c1ccccc1 &field=Adverse reaction: Four limbs rigidity returns 0

Quick note, Adverse reaction: Four limbs rigidity for CCOC(OC)(OC)C(=O)c1ccnn1[C@H](C)c1ccccc1 landed at 1

Field Adverse reaction: Four limbs rigidity (entry COC(OC)(OC)C(=O)c1cncn1[C@H](C)c1ccccc1 ) reads 0

Summary for this compound, COC(OC)(OC)C(=O)c1ccnn1[C@H](C)c1ccccc1 [Compound D1] : Adverse reaction: Four limbs rigidity is 0

Entry under test: COC(=O)C1(OC(=O)c2cncn2[C@H](C)c2ccccc2)CC1 [CPMM, cyclopropyl methoxycarbonyl metamidate, reference compound] . Its Adverse reaction: Four limbs rigidity was 2

---

For each of the compounds below, state its Adverse reaction: Tremor.
tested on: Sprague-Dawley rats; experiment: Pharmacological effect and adverse reactions under the equivalent dose (2ED50), Group C compounds; type: in vivo; conditions: equivalent dose (2ED50), number of rats of n = 8
Answer field: number only, no words.

Summary for this compound, CC#CCC(=O)c1cncn1[C@H](C)c1ccccc1 : Adverse reaction: Tremor is 1

Field Adverse reaction: Tremor (entry C#CCOCC(=O)c1cc(F)nn1[C@H](C)c1ccccc1 ) reads 1

Measured Adverse reaction: Tremor, CCOC(=O)c1cncn1C(C)c1ccccc1 (stereo not shown) [Etomidate, reference compound] : 6

Field Adverse reaction: Tremor (entry CCC(CC)OCC(=O)c1cncn1[C@H](C)c1ccccc1 ) reads 0

Adverse reaction: Tremor measured on C[C@H](c1ccccc1)n1cncc1C(=O)COCCC1CCC1 = 0

Lab note: measured Adverse reaction: Tremor of CC#CCOCC(=O)c1ccnn1[C@H](C)c1ccccc1 was 0

So, CCSCC(=O)c1ccnn1[C@H](C)c1ccccc1 ? Its Adverse reaction: Tremor was 0

Notebook: C[C@H](c1ccccc1)n1cncc1C(=O)COC1CCC1 , Adverse reaction: Tremor read as 1

Adverse reaction: Tremor in this record for CCOCC(=O)c1ccnn1[C@H](C)c1ccccc1 : 0

Summary for this compound, C[C@H](c1ccccc1)n1cnc(F)c1C(=O)COCCC1CCC1 : Adverse reaction: Tremor is 1
